- Test system: HNSC
- TEST_NAME: growth inhibition (% activity, log2 RLU normalised to DMSO / staurosporine); higher = more growth inhibition
- RUN_PARAMETERS: 33 µM
QUANTITY_MEASURED: growth inhibition (%)
Give bare numbers, in %.

Worked examples follow.
CCCC(=O)OCOC(=O)C1=C(C)NC(C)=C(C(=O)OC)C1c1cccc(Cl)c1Cl (centres undefined)    31.7
Clc1ccc(COC(Cn2ccnc2)c2ccc(Cl)cc2Cl)cc1 (centres undefined)    7.53
COc1cc(Nc2c(C#N)cnc3cc(OCCCN4CCN(C)CC4)c(OC)cc23)c(Cl)cc1Cl    41.9

Quick batch: growth inhibition for everything below.
1. CC(=O)Oc1ccc(C(c2ccc(OC(C)=O)cc2)c2ccccn2)cc1
2. CCCN(CCC)CCc1cccc2c1CC(=O)N2
3. Clc1ccc(C(Cn2ccnc2)OCc2c(Cl)cccc2Cl)c(Cl)c1 (centres undefined)
4. Cn1c(=O)c2c(ncn2CC2OCCO2)n(C)c1=O
5. CC(=O)[C@H]1CC[C@H]2[C@@H]3CCC4=CC(=O)CC[C@]4(C)[C@H]3CC[C@]12C
6. NS(=O)(=O)c1cc2c(cc1Cl)N=CNS2(=O)=O

// result
1. 4.99
2. 0.584
3. 4.09
4. 12.2
5. 2.02
6. -4.62

Please go through the list and note growth inhibition for each compound.
1. COC(=O)C1=CO[C@@H](O)[C@@H]2C(CO)=CC[C@H]12
2. CC(C)NCC(O)COc1ccc(COCCOC(C)C)cc1 (centres undefined)

// result
-1.1
-7.27

====

What growth inhibition was measured for each of the following?
- System: DIPGX7 (H3.3 K27M diffuse intrinsic pontine glioma line)
- TEST_NAME: growth inhibition (% activity, log2 RLU normalised to DMSO / staurosporine); higher = more growth inhibition
- RUN_PARAMETERS: 33 µM
One number for each entry, in %.

These solved cases illustrate the format of a correct answer.
CNCC[C@H](Oc1cccc2ccccc12)c1cccs1    4.07
Clc1ccc(C(c2ccccc2Cl)C(Cl)Cl)cc1 (configuration not stated)    -1.72

Provide the reported growth inhibition of each entry below, same order.
1. Cc1c(C(=O)NN2CCCCC2)nn(-c2ccc(Cl)cc2Cl)c1-c1ccc(Cl)cc1
2. Nc1nc(=O)c2c([nH]1)NCC(CNc1ccc(C(=O)N[C@@H](CCC(=O)O)C(=O)O)cc1)N2C=O (some centres not stated)

// result
[1.25, -1.46]

Give one value of growth inhibition per listed molecule.
1. O=NN(CCCl)C(=O)NC1CCCCC1
2. COc1cc([C@@H]2c3cc4c(cc3[C@@H](O[C@@H]3O[C@@H]5CO[C@@H](c6cccs6)O[C@H]5[C@H](O)[C@H]3O)[C@H]3COC(=O)[C@H]23)OCO4)cc(OC)c1O

// result
1. 3.11
2. 29.9

Batch: growth inhibition for all items listed.
1. OCCN(CCO)c1nc(N2CCCCC2)c2nc(N(CCO)CCO)nc(N3CCCCC3)c2n1
2. CCCCCCOC(=O)NC(=N)c1ccc(NCc2nc3cc(C(=O)N(CCC(=O)OCC)c4ccccn4)ccc3n2C)cc1
3. NS(=O)(=O)c1cc2c(cc1Cl)N=CNS2(=O)=O
4. CN(C)CCC(c1ccc(Cl)cc1)c1ccccn1 (racemic)
5. CCC(C)(C)c1ccc(CC(C)CN2C[C@@H](C)O[C@@H](C)C2)cc1 (some centres not stated)
6. CCOc1cc(CC(=O)N[C@@H](CC(C)C)c2ccccc2N2CCCCC2)ccc1C(=O)O

// result
1. -1.26
2. 1.77
3. 0.251
4. 2.71
5. 36.9
6. 1.67
